The reported numbers originate from PubChem BioAssay AID1963973.

- System: 883617-216-R-J1-PDC tumor spheroids, viability;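 further: spheroids exposed to agents for 7 days before the viability read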
- measurement_protocol: Anticancer human tumor 883617-216-R-J1-PDC patient-derived bladder carcinoma cell line growth inhibition [PI3K]
- condition_set: second compound 1 µM; first compound 1 µM; stronger effect = lower value; spheroids with HUVEC and MSC
- Excerpt: Combinatorial screen of targeted agents with the PI3K inhibitors inavolisib, alpelisib, duvelisib, and copanlisib in multi-cell type tumor spheroids A high-throughput screen of multi-cell type tumor spheroids was designed to identify active combinations of targeted small molecules and PI3K pathway inhibitors. […] Compounds. […] If the clinical Cmax for an agent had not been determined, the highest concentration tested was 10 microM. […]
value_type: viability, T/C

Please review the following examples before continuing.
compound: CCN1CCN(Cc2ccc(Nc3ncc(F)c(-c4cc(F)c5nc(C)n(C(C)C)c5c4)n3)nc2)CC1 + Cc1nc(NC(=O)N2CCCC2C(N)=O)sc1-c1ccnc(C(C)(C)C(F)(F)F)c1
target_under_test: 883617-216-R-J1-PDC tumor spheroids, viability;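 further: spheroids exposed to agents for 7 days before the viability read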
viability, T/C: 19.3%
--
compound: CC(Cn1ccc(-c2ccc(C#N)c(Cl)c2)n1)NC(=O)c1cc(C(C)O)[nH]n1 (stereo not drawn) + Cc1nc(NC(=O)N2CCCC2C(N)=O)sc1-c1ccnc(C(C)(C)C(F)(F)F)c1
target_under_test: 883617-216-R-J1-PDC tumor spheroids, viability;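 further: spheroids exposed to agents for 7 days before the viability read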
viability, T/C: 24.7%
--
compound: CCN1CCN(Cc2ccc(Nc3ncc(F)c(-c4cc(F)c5nc(C)n(C(C)C)c5c4)n3)nc2)CC1 + CC(Nc1ccc2c(c1)OCCn1cc(N3C(=O)OCC3C(F)F)nc1-2)C(N)=O
target_under_test: 883617-216-R-J1-PDC tumor spheroids, viability;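 further: spheroids exposed to agents for 7 days before the viability read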
viability, T/C: 11.1%
--
compound: Cn1nccc1Nc1nccc(-c2ccn(C(CO)c3ccc(Cl)c(F)c3)c(=O)c2)n1 (stereo not drawn) + Cc1nc(NC(=O)N2CCCC2C(N)=O)sc1-c1ccnc(C(C)(C)C(F)(F)F)c1
target_under_test: 883617-216-R-J1-PDC tumor spheroids, viability;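 further: spheroids exposed to agents for 7 days before the viability read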
viability, T/C: 20.5%

Sample C=CC(=O)N1CCN(c2nc(=O)n(-c3c(C)ccnc3C(C)C)c3nc(-c4c(O)cccc4F)c(F)cc23)C(C)C1 (stereo not drawn) + CC(Nc1ncnc2nc[nH]c12)c1cc2cccc(Cl)c2c(=O)n1-c1ccccc1 , system: 883617-216-R-J1-PDC tumor spheroids, viability. Its viability, T/C is 45.7%

Sample CC1(C)CCC(CN2CCN(c3ccc(C(=O)NS(=O)(=O)c4ccc(NCC5CCOCC5)c([N+](=O)[O-])c4)c(Oc4cnc5[nH]ccc5c4)c3)CC2)=C(c2ccc(Cl)cc2)C1 + CC(Nc1ncnc2nc[nH]c12)c1cc2cccc(Cl)c2c(=O)n1-c1ccccc1 , system: 883617-216-R-J1-PDC tumor spheroids, viability. Its viability, T/C is 79.3%

Sample CNC(=O)c1ccc(N2C(=S)N(c3ccc(C#N)c(C(F)(F)F)c3)C(=O)C2(C)C)cc1F + COc1c(OCCCN2CCOCC2)ccc2c3n(c(=NC(=O)c4cnc(N)nc4)nc12)CCN3 , system: 883617-216-R-J1-PDC tumor spheroids, viability. Its viability, T/C is 3.17%

Sample CC1(C)CCC(Nc2ncc(C(F)(F)F)c(-c3c[nH]c4c(P(C)(C)=O)c(C#N)ccc34)n2)CN1 (stereo not drawn) + CC(Nc1ncnc2nc[nH]c12)c1cc2cccc(Cl)c2c(=O)n1-c1ccccc1 , system: 883617-216-R-J1-PDC tumor spheroids, viability. Its viability, T/C is 28.1%

Sample C#Cc1c(F)ccc2cc(O)cc(-c3ncc4c(N5CC6CCC(C5)N6)nc(OCC56CCCN5CC(F)C6)nc4c3F)c12 (stereo not drawn) + Cc1nc(NC(=O)N2CCCC2C(N)=O)sc1-c1ccnc(C(C)(C)C(F)(F)F)c1 , system: 883617-216-R-J1-PDC tumor spheroids, viability. Its viability, T/C is 29%

Sample CCCS(=O)(=O)Nc1ccc(F)c(C(=O)c2c[nH]c3ncc(-c4ccc(Cl)cc4)cc23)c1F + COc1c(OCCCN2CCOCC2)ccc2c3n(c(=NC(=O)c4cnc(N)nc4)nc12)CCN3 , system: 883617-216-R-J1-PDC tumor spheroids, viability. Its viability, T/C is 5.19%

Sample Cn1nccc1Nc1nccc(-c2ccn(C(CO)c3ccc(Cl)c(F)c3)c(=O)c2)n1 (stereo not drawn) + COc1c(OCCCN2CCOCC2)ccc2c3n(c(=NC(=O)c4cnc(N)nc4)nc12)CCN3 , system: 883617-216-R-J1-PDC tumor spheroids, viability. Its viability, T/C is 0.25%

Sample Cn1nccc1Nc1nccc(-c2ccn(C(CO)c3ccc(Cl)c(F)c3)c(=O)c2)n1 (stereo not drawn) + CC(Nc1ccc2c(c1)OCCn1cc(N3C(=O)OCC3C(F)F)nc1-2)C(N)=O , system: 883617-216-R-J1-PDC tumor spheroids, viability. Its viability, T/C is 11%

Sample C=CC(=O)N1CCN(c2nc(=O)n(-c3c(C)ccnc3C(C)C)c3nc(-c4c(O)cccc4F)c(F)cc23)C(C)C1 (stereo not drawn) + CC(Nc1ccc2c(c1)OCCn1cc(N3C(=O)OCC3C(F)F)nc1-2)C(N)=O , system: 883617-216-R-J1-PDC tumor spheroids, viability. Its viability, T/C is 7.88%
